meta.source: PubChem BioAssay AID2060497

Below, each entry is listed with its recorded IC50.
Tested on: 317291-083-R-J1-PDC complex spheroids, viability;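 also: spheroids exposed to compounds for one week before readout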
Assay: Anticancer human tumor 317291-083-R-J1-PDC patient-derived soft tissue sarcoma cell line growth inhibition [GQUAD]
Details: curve of first compound; second compound 10 µM
Value Kind: IC50

Compound | Value Kind | Measured Value
O=C(NO)c1cnc(N2CCN(S(=O)(=O)c3ccc4ccccc4c3)CC2)nc1 + CN(C)c1ccc(Nc2c3ccc(NC(=O)CCN4CCCC4)cc3nc3cc(NC(=O)CCN4CCCC4)ccc23)cc1 | IC50 | < 31.6 nM
Cc1[nH]c2ccccc2c1CCNCc1ccc(/C=C/C(=O)NO)cc1 + Cc1[nH]c2ccc(F)cc2c1-c1nc2c3cccnc3c3ncccc3c2[nH]1 | IC50 | < 0.999 nM
Cc1cccc(N(C)C(=O)C2C(O)CCN2c2nc(C)cc(C(F)(F)F)c2C#N)c1 (centres undefined) + CN(C)c1ccc(Nc2c3ccc(NC(=O)CCN4CCCC4)cc3nc3cc(NC(=O)CCN4CCCC4)ccc23)cc1 | IC50 | < 31.6 nM
COc1cc(C2c3cc4c(cc3C(OC3OC5COC(C)OC5C(O)C3O)C3COC(=O)C23)OCO4)cc(OC)c1O (centres undefined) + Cc1[nH]c2ccc(F)cc2c1-c1nc2c3cccnc3c3ncccc3c2[nH]1 | IC50 | 222 nM
